These data points were gathered from PubChem BioAssay AID1159580.

# method_summary: chemical genetic growth profiling, strain panel (AID 1159580);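 note: tested at 20 µM; growth read once vehicle control cultures reached saturation at 30 °C; 1 = growth at the plate median or of vehicle wells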
# measurement_context: S. cerevisiae deletion strains, growth OD, locus YLR221C, strain rsa3, stronger effect = lower value
In all, about 5,500 compounds went through this assay and about 2,000 (36%) were called active. About 18% were inconclusive and are not listed. This is one part of the list.
Assign labels as follows, please: 1.0 for normalized growth below 1; 0.0 for normalized growth equal to or exceeding 1.

# example entries with known answers
1. O=C(O)C1=CCCNC1
1.0
2. CC[N+](C)(C)c1cccc(O)c1
0.0

Prompt: In the record for O=C(O)c1ccccc1 , is normalized growth less than 1?
Completion: 1.0

----------
# method_summary: chemical genetic growth profiling, strain panel (AID 1159580);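 note: tested at 20 µM; growth read once vehicle control cultures reached saturation at 30 °C; 1 = growth at the plate median or of vehicle wells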
# measurement_context: S. cerevisiae deletion strains, growth OD, locus YKL068W, stronger effect = lower value
Screen size: about 5,500 compounds; about 2,000 (36%) were called active. About 18% were inconclusive and are not listed. The list shows a part of the results.
Give normalized growth for every item shown.
Numbers only.

1. CC(C)=CCCC(C)C1CC[C@@]2(C)C3=C(CC[C@]12C)C1(C)CC[C@H](O)C(C)(C)C1CC3 (some centres not stated)
1.03
2. CC(Cc1cccc(C(F)(F)F)c1)NCCOC(=O)c1ccccc1 (configuration not stated)
1.01

Please give normalized growth, item by item, for the list that follows.
1. CC[N+](C)(C)c1cccc(O)c1
2. CN(C)C1C(=O)C(C(N)=O)=C(O)C2(O)C(=O)C3=C(O)c4c(O)ccc(Cl)c4C(C)(O)C3CC12 (configuration not stated)
3. NCCCCCCNS(=O)(=O)c1cccc2c(Cl)cccc12
4. CCC(C)C(=O)OC1[C@@H]2CC3=C4CC(=O)O[C@@H](c5ccoc5)[C@]4(C)CCC3[C@@](C)(C2=O)[C@@H](CC(=O)OC)C1(C)C (some centres not stated)
5. CN(C)[C@@H]1C(=O)C(C(N)=O)=C(O)[C@@]2(O)C(=O)C3=C(O)c4c(O)ccc(Cl)c4[C@@](C)(O)[C@H]3C[C@@H]12

Completion:
1: 0.985; 2: 0.996; 3: 0.999; 4: 0.999; 5: 1
